The measured values listed here are drawn from ChEMBL document CHEMBL1146375.

- System: Staphylococcus aureus
- assay notes: Antibacterial activity against Staphylococcus aureus NCIM 2079 after 18 hrs by disc diffusion method
- Format: functional
readout kind: inhibition zone (IZ) (mm)
Express it in mm; write the number only.

Below are worked cases with known answers.
INSERT INTO results (structure_string, experimental_value) VALUES
  ('Cc1cc2nc(-c3ccc(O)c(C(=O)N[C@@H](Cc4c[nH]c5ccccc45)C(=O)N[C@@H](C)C(=O)N[C@@H](Cc4ccc(O)cc4)C(=O)O)c3)[nH]c2cc1C', 11),
  ('Cc1cc2nc(-c3c(I)cc(C(=O)N[C@@H](C)C(=O)N[C@@H](Cc4ccc(O)cc4)C(=O)NCC(=O)O)cc3I)[nH]c2cc1C', 13);

Please examine the following record next.
Record request: inhibition zone (IZ) value, item `CC(C)[C@H](NC(=O)c1cc(-c2nc3ccc([N+](=O)[O-])cc3[nH]2)ccc1O)C(=O)N[C@@H](Cc1ccccc1)C(=O)N[C@@H](Cc1cnc[nH]1)C(=O)O`
11

* * *

- assay notes: Growth inhibition of EAC cells at 250 ug/mL after 3 hrs
- Type: functional
- condition set: Mus musculus, Ehrlich
Residues, ends and D or L forms follow the SMILES beside them. *: point of attachment. X2 = O=C(c1cc(-c2nc3ccc([N+](=O)[O-])cc3[nH]2)ccc1O)*
Rule: inhibition at 250 µg/mL under 20% gives Not fulfilled, otherwise Fulfilled.

Look over these answered cases.
INSERT INTO measurements (molecule, class_name) VALUES
  ('O=c1[nH]cc(F)c(=O)[nH]1 [FLUOROURACIL]', 'Fulfilled'),
  ('O=C(O)[C@@H]1CCCN1C(=O)[C@@H]1CCCN1C(=O)[C@@H]1CCCN1C(=O)c1cc(-c2nc3ccc([N+](=O)[O-])cc3[nH]2)ccc1O', 'Fulfilled'),
  ('COC(=O)[C@H](Cc1cnc[nH]1)NC(=O)[C@H](Cc1cnc[nH]1)NC(=O)c1cc(-c2nc3cc(C)c(C)cc3[nH]2)ccc1O', 'Not fulfilled'),
  ('COC(=O)[C@H](CCCNC(=N)N[N+](=O)[O-])NC(=O)[C@@H]1CCCN1C(=O)c1cc(I)c(-c2nc3cc(C)c(C)cc3[nH]2)c(I)c1', 'Fulfilled'),
  ('Cc1cc2nc(-c3ccc(C(=O)N[C@@H](Cc4cnc[nH]4)C(=O)N[C@@H](Cc4ccc(O)cc4)C(=O)O)cc3)[nH]c2cc1C', 'Not fulfilled'),
  ('CC(C)[C@H](NC(=O)c1cc(-c2nc3ccc([N+](=O)[O-])cc3[nH]2)ccc1O)C(=O)N[C@@H](Cc1ccccc1)C(=O)N[C@@H](Cc1cnc[nH]1)C(=O)O', 'Not fulfilled'),
  ('COC(=O)CNC(=O)[C@H](CC(C)C)NC(=O)[C@@H]1CCCN1C(=O)[C@H](Cc1cnc[nH]1)NC(=O)c1cc(-c2nc3ccc([N+](=O)[O-])cc3[nH]2)ccc1O (X2-HPLG-OMe)', 'Fulfilled'),
  ('Cc1cc2nc(-c3c(I)cc(C(=O)N[C@@H](Cc4cnc[nH]4)C(=O)N4CCC[C@H]4C(=O)O)cc3I)[nH]c2cc1C', 'Fulfilled');

As a next step, examine the molecule that follows.
Check this molecule for inhibition at 250 µg/mL at or above 20%: `C[C@H](NC(=O)[C@@H]1CCCN1C(=O)c1cc(-c2nc3ccc([N+](=O)[O-])cc3[nH]2)ccc1O)C(=O)O`
Not fulfilled
